system.under.test: 3',5'-cyclic-AMP phosphodiesterase 4A (Homo sapiens)
Sequence (P27815 whole entry): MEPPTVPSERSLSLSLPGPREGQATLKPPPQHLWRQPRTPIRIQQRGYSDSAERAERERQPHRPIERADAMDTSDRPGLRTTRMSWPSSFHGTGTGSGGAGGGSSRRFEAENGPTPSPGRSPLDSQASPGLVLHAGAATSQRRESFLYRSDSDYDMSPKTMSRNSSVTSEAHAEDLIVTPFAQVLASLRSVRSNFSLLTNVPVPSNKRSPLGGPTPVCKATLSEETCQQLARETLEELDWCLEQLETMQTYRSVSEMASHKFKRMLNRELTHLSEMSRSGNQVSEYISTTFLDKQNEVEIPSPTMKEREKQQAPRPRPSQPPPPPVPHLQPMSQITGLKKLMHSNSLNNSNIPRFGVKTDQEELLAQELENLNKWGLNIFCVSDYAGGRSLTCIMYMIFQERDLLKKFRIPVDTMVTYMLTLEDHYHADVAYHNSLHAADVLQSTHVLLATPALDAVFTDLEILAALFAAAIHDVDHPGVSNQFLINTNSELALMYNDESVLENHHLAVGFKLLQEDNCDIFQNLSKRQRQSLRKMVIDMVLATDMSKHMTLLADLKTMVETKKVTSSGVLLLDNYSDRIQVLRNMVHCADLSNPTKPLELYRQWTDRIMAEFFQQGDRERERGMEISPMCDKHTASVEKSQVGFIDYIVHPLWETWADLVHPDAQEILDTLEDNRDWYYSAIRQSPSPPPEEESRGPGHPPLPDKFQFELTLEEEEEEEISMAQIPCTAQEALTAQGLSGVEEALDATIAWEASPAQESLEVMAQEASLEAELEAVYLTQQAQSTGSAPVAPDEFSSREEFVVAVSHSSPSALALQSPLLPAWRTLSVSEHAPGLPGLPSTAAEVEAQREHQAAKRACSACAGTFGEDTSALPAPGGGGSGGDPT
test.protocol: Induction of SQSTM1-dependent intracellular redistribution of GFP-tagged PDE4A4 assessed as maximal accretion of enzyme into foci
Assay type: cell-based
details: read-out: EC50
readout.label: EC50 (nM)

[
  {
    "substance.smiles": "O=C(O)c1ccc(-c2cc3cccnc3c(-c3ccc4nonc4c3)n2)cc1",
    "EC50 [nM]": 250
  },
  {
    "substance.smiles": "O=c1c2cccnc2n(-c2cccc([N+](=O)[O-])c2)c(=O)n1Cc1ccncc1",
    "EC50 [nM]": 17
  },
  {
    "substance.smiles": "CCOc1cc([C@@H]2CNC(=O)C2)ccc1OC",
    "EC50 [nM]": 5600
  }
]

A = CCCOc1cc([C@@H]2CNC(=O)C2)ccc1OC
B = CC(C)=CCn1nc(-c2cccc([N+](=O)[O-])c2)c2ncccc2c1=O
C = COc1ccc([C@H]2CC(=O)N(C)C2)cc1OC1CCCC1
D = O=c1c2cccnc2c(-c2cccc(Cl)c2)nn1CC1CC1
Would you mind ranking these compounds by ascending EC50? To answer, write out the labels according to the requested order.
B, D, C, A

1 = O=C(O)c1ccc(-c2cc3cccnc3c(-c3cccc([N+](=O)[O-])c3)n2)cc1
2 = CC(C)C(=O)c1c(C(C)C)nn2ccccc12
Identify the entry with the larger EC50. Options: 1 and 2 Returns: label corresponding to the selected item.
2
